Just for reference, ChEMBL document CHEMBL1142271 is where these values come from.

Recorded Vd, one value per entry.
test: Volume of distribution in rat; assay type: ADME, organism-based; conditions: in vivo

smiles notation	Vd
Cc1ccc2c(-c3nnc(SCCCN4CCc5cc6c(cc5CC4)N(S(C)(=O)=O)CCO6)n3C)cccc2n1	2.4 L/kg
Cc1ccc2c(-c3nnc(SCCCN4CCc5cc6nc(C(F)(F)F)oc6cc5CC4)n3C)cccc2n1	5 L/kg
Cc1ccc2c(-c3nnc(SCCCN4CCc5cc6nc(C)sc6cc5CC4)n3C)cccc2n1	4.3 L/kg

====

Recorded Vd, one value per entry.
experiment: Volume of distribution in rat; format: ADME, organism-based; details: in vivo

smiles notation	Vd [L/kg]
Cc1ncoc1-c1nnc(SCCCN2CCc3cc4nc(CC5CC5)oc4cc3CC2)n1C	1.7
Cc1ccc2c(-c3nnc(SCCCN4CCc5cc6nc(N(C)C)oc6cc5CC4)n3C)cccc2n1	2.8
Cc1ccc2c(-c3nnc(SCCCN4CCc5cc6nc(CC7CC7)oc6cc5CC4)n3C)cccc2n1	4.3
Cc1ccc2c(-c3nnc(SCCCN4CCc5cc6nc(C)oc6cc5CC4)n3C)cccc2n1	4.31
CCc1nc2cc3c(cc2o1)CCN(CCCSc1nnc(-c2cccc4nc(C)ccc24)n1C)CC3	5.1
Cc1ccc2c(-c3nnc(SCCCN4CCc5cc6c(cc5CC4)C(=O)N(C(C)C)C6)n3C)cccc2n1	3.5
Cc1nc2cc3c(cc2o1)CCN(CCCSc1nnc(-c2ccc(C(F)(F)F)cc2)n1C)CC3	5.4
CCc1nc2cc3c(cc2o1)CCN(CCCSc1nnc(-c2ccc(C(F)(F)F)cc2)n1C)CC3	3.4
Cc1ccc2c(-c3nnc(SCCCN4CCc5cc6onc(C)c6cc5CC4)n3C)cccc2n1	3.3

====

Recorded Kp at 1 h, one value per entry.
assay: Ratio of drug level brain to blood in iv dosed rat after 1 hr; assay type: ADME, organism-based; settings: read-out: BBR
readout name: Kp at 1 h

smiles notation	measured
Cc1ccc2c(-c3nnc(SCCCN4CCc5cc6nc(C)oc6cc5CC4)n3C)cccc2n1	5.4
Cc1ccc2c(-c3nnc(SCCCN4CCc5cc6nc(C)sc6cc5CC4)n3C)cccc2n1	4.4
Cc1nc2cc3c(cc2o1)CCN(CCCSc1nnc(-c2ccc(C(F)(F)F)cc2)n1C)CC3	2.9
Cc1ccc2c(-c3nnc(SCCCN4CCc5cc6nc(C(F)(F)F)oc6cc5CC4)n3C)cccc2n1	2.8
CCc1nc2cc3c(cc2o1)CCN(CCCSc1nnc(-c2ccc(C(F)(F)F)cc2)n1C)CC3	3.1
Cc1ccc2c(-c3nnc(SCCCN4CCc5cc6c(cc5CC4)C(=O)N(C(C)C)C6)n3C)cccc2n1	0.2
Cc1ccc2c(-c3nnc(SCCCN4CCc5cc6onc(C)c6cc5CC4)n3C)cccc2n1	7.7
Cc1ccc2c(-c3nnc(SCCCN4CCc5cc6nc(N7CCCCC7)oc6cc5CC4)n3C)cccc2n1	5.1
Cc1ccc2c(-c3nnc(SCCCN4CCc5cc6nc(N(C)C)oc6cc5CC4)n3C)cccc2n1	1.1
Cc1ccc2c(-c3nnc(SCCCN4CCc5cc6c(cc5CC4)N(S(C)(=O)=O)CCO6)n3C)cccc2n1	0.2

====

experiment: Blood clearance in rat; assay type: ADME, organism-based; conditions: whole blood
Please use class 1 for clearance under 40 mL/min/kg and class 0 for everything else, ties included.

smiles notation	class
Cc1nc2cc3c(cc2o1)CCN(CCCSc1nnc(-c2ccc(C(F)(F)F)cc2)n1C)CC3	class 0
Cc1ccc2c(-c3nnc(SCCCN4CCc5cc6nc(N7CCCCC7)oc6cc5CC4)n3C)cccc2n1	class 0
Cc1ccc2c(-c3nnc(SCCCN4CCc5cc6nc(C(F)(F)F)oc6cc5CC4)n3C)cccc2n1	class 1
Cc1ccc2c(-c3nnc(SCCCN4CCc5cc6nc(CC7CC7)oc6cc5CC4)n3C)cccc2n1	class 0
CCc1nc2cc3c(cc2o1)CCN(CCCSc1nnc(-c2cccc4nc(C)ccc24)n1C)CC3	class 0
Cc1ccc2c(-c3nnc(SCCCN4CCc5cc6nc(C)sc6cc5CC4)n3C)cccc2n1	class 1
CCCc1nc2cc3c(cc2o1)CCN(CCCSc1nnc(-c2cccc4nc(C)ccc24)n1C)CC3	class 0
Cc1ccc2c(-c3nnc(SCCCN4CCc5cc6nc(C)oc6cc5CC4)n3C)cccc2n1	class 0
Cc1ccc2c(-c3nnc(SCCCN4CCc5cc6nc(N(C)C)oc6cc5CC4)n3C)cccc2n1	class 1
CCc1nc2cc3c(cc2o1)CCN(CCCSc1nnc(-c2ccc(C(F)(F)F)cc2)n1C)CC3	class 0
Cc1ccc2c(-c3nnc(SCCCN4CCc5cc6nc(C(C)(C)C)oc6cc5CC4)n3C)cccc2n1	class 0
Cc1ncoc1-c1nnc(SCCCN2CCc3cc4nc(CC5CC5)oc4cc3CC2)n1C	class 1
Cc1ccc2c(-c3nnc(SCCCN4CCc5cc6c(cc5CC4)N(S(C)(=O)=O)CCO6)n3C)cccc2n1	class 1
Cc1ccc2c(-c3nnc(SCCCN4CCc5cc6nc(C(C)C)oc6cc5CC4)n3C)cccc2n1	class 0
Cc1ccc2c(-c3nnc(SCCCN4CCc5cc6c(cc5CC4)C(=O)N(C(C)C)C6)n3C)cccc2n1	class 1
Cc1ncoc1-c1nnc(SCCCN2CCc3cc4nc(C(C)C)oc4cc3CC2)n1C	class 0
